- experiment: NCI Yeast Anticancer Drug Screen. Data for the mec2-1 strain (AID 157)
- conditionsUsed: S. cerevisiae mec2-1 strain, at 50.0 µM (retest, dose inferred, filed as 5.0), active compounds read high
Compounds without any hit were thinned out: in the full panel of roughly 79,000, 15% have a hit.

| molecule | growth inhibition [%] |
| --- | --- |
| S=C(Nc1cc(Cl)c(Cl)cc1Cl)SCc1ccccc1 | 99 |
| CC(Cc1ccccc1)NN1CCOC(c2ccccc2)C1C (stereo not drawn) | 56 |
| O=[N+]([O-])C(=C(Nc1ccccc1)Nc1ccccc1)C(Cl)=C(Cl)Cl | 100 |
| O=NN(CCCl)C(=O)Nc1cc(=O)[nH]c(SCc2ccccc2)n1 | 10 |
| NC(N)=NC(N)=Nc1ccc(-c2ccccc2)cc1 | 96 |
| CN(C)CC/[N+]([O-])=C(/c1ccccc1)C12CC3CC(CC(C3)C1)C2 | -1 |
| Clc1ccc(CSc2ncnc3c2ncn3C2CCCCO2)cc1 (stereo not drawn) | 96 |
| O=[N+]([O-])c1ccc(C2=Nn3cnnc3SC2)o1 | 35 |
| Cc1c(O)ccc2c1OCC(c1ccc(Cl)cc1)C2 (stereo not drawn) | 13 |
| O=[N+]([O-])/C(Cl)=C(\Nc1ccccc1)C(Cl)=C(Cl)Cl | 99 |
| CC(CC=NCCN=CCC(C)CC(C)(C)C)CC(C)(C)C (stereo not drawn) | 3 |
| CCOC(=S)SSC(=S)NCCNC(=S)SSC(=S)OCC | 72 |
| O=C(Nc1ccc(Cl)cc1)OCCOCCOC(=O)Nc1ccc(Cl)cc1 | 97 |
| O=S(c1ccccc1)c1c(Cl)c(Cl)nc(Cl)c1Cl (stereo not drawn) | 99 |
| CN(Cc1cc(Cl)cc(Cl)c1)CC(C(=O)c1ccccc1)c1ccccc1 (stereo not drawn) | 90 |
| COC(C)(C)[C@@H]1CCCN1C1=C(C)C(=O)OC1 | 99 |
| CC1CCC(=NNC(N)=O)CC1 (stereo not drawn) | -2 |
| O=[N+]([O-])c1ccc(/C=C/[n+]2ccc3ccccc3c2)o1 | 91 |

###

- experiment: NCI Yeast Anticancer Drug Screen. Data for the mlh1 rad18 strain (AID 175)
- conditionsUsed: S. cerevisiae mlh1 rad18 strain growth inhibition; at 50.0 µM (retest, dose inferred, filed as 5.0)
The panel holds about 79,000 compounds, 15% with a hit somewhere; the sample as a whole holds those more often. Active and inactive are the calls of the source. Cut-off read from the data, not from the text of the source: active = growth inhibition above about 70%; inactive = the rest.
Classes used: active, inactive

| compound | discreteLabel |
| --- | --- |
| CN1C/C(=C\c2ccc(Cl)cc2)C(=O)/C(=C/c2ccc(Cl)cc2)C1 | active |
| CCOC(=O)c1c[nH]cc1-c1cn(S(=O)(=O)c2ccccc2)cc1C | inactive |
| CCOC(=O)/C(C)=N/Nc1cc(Cl)ccc1O | inactive |
| CC(=O)c1c(O)c2cccc3c2n(c1=O)CCC3 | active |
| CN(c1ccc(Cl)cc1)S(=O)(=O)c1cccc([N+](=O)[O-])c1 | inactive |
| CC(=O)NC(CCC(=O)O)C(=O)O.[NH-]C1CCCCC1[NH-].[Pt+2] (configuration not stated) | active |
| CCn1c2ccc(N)cc2c2c(N)c(-n3cccc3)ccc21 | inactive |
| [N-]=[N+]=CC(=O)c1ccc(C(=O)C=[N+]=[N-])cc1 | active |
| [O-]c1c2cc(-[n+]3c(-c4ccccc4)cc(-c4ccccc4)cc3-c3ccccc3)cc1CO[C@@H](c1ccccc1)[C@H](c1ccccc1)OCc1cccc(n1)CO[C@@H](c1ccccc1)[C@H](c1ccccc1)OC2 | active |
| Cc1ccc2c(c1)C1(SCC(=O)N1c1ccc(Cl)cc1)C(=O)N2 (configuration not stated) | inactive |
| CC1(C)OC(C(COC(=O)c2ccc([N+](=O)[O-])cc2)OS(=O)(=O)c2ccc([N+](=O)[O-])cc2)C(C(SCc2ccccc2)SCc2ccccc2)O1 (configuration not stated) | active |
| Cc1ccc(C2(c3ccc(F)cc3)OC(=O)c3ccccc32)c(O)c1 (configuration not stated) | active |
| COc1cc(C=O)c(Cl)cc1O | inactive |
| CCCN(CCC)C(=O)C(C)C | inactive |
| S=c1nc(/C=C/c2ccc(Cl)c(Cl)c2)[nH][nH]1 | active |
| COc1ccc2ccccc2c1/C=C/C(=O)c1ccccc1 | active |
| CCCCC(=O)c1nc(N(CC2CCCCC2)C(=O)NC)sc1N | inactive |

###

- experiment: NCI Yeast Anticancer Drug Screen. Data for the bub3 strain (AID 167)
- conditionsUsed: S. cerevisiae bub3 mutant strain, at 50.0 µM, active compounds read high
About 79,000 compounds went through this panel and 15% of them were active in at least one assay; those are over-represented in the sample as a whole.
readoutType: growth inhibition (%)

| molecule | numericValue |
| --- | --- |
| CC(C(=O)c1ccc(Cl)cc1)C1OC(=O)C(Cl)=C1Cl (stereo not drawn) | 91.5 |
| O=C1c2ccccc2C(=O)c2sc(Nc3ccccc3C(F)(F)F)nc21 | 92.2 |
| COC(=O)N(C[C@@H]1C=CCCC1)c1ccccc1I | 91 |
| CC1=C(C(=O)Nc2ccccc2)C(c2ccc(Cl)c(Cl)c2)C(C(=O)Nc2ccccc2)=C(C)N1 | 91.5 |
| O=[N+]([O-])c1ccc2nc(-c3ccccn3)[nH]c2c1 | 88.6 |
| O=c1[nH]c2c([N+](=O)[O-])cc(Cl)cc2nc1/C=C(\O)c1ccc(Cl)cc1 | 89.8 |
| Cc1[nH]c2ccccc2c1C(C)CC(O)c1ccccc1 (stereo not drawn) | 88.7 |
| NNc1ccccc1[N+](=O)[O-] | 88.5 |
| N#CCCN(CCC#N)c1ccc(C(Sc2ccccc2)C(NC(=O)c2cc([N+](=O)[O-])ccc2Cl)C(=O)Sc2ccccc2)cc1 (stereo not drawn) | 74.7 |
| O=C(C[n+]1ccccc1Cl)c1ccc(Oc2ccc(C(=O)C[n+]3ccccc3Cl)cc2)cc1 | 89 |
| Oc1ccc2oc3ccccc3c2c1 | 88.4 |
| CCOC(=O)/C(=C/c1ccccc1Br)P(=O)(OCC)OCC | 61.3 |
| CCCN(CCC)Cc1cc2c(cc1O)CC[C@@H]1[C@@H]2CC[C@]2(C)C(=O)CC[C@@H]12 | 37.5 |
| CN(C)CC1(C)CC/C(=C\c2ccc(Cl)cc2)C1=O (stereo not drawn) | 35.4 |
| CCC[CH2][Sn]1([CH2]CCC)[O]CC([CH2][Sn]([c]2ccccc2)([c]2ccccc2)[c]2ccccc2)[O]1 (stereo not drawn) | 91.3 |
| Cc1c(-c2ccccc2)ccnc1/C=N/NC(=S)NCCc1ccccc1 | 77.7 |
| C/C(=N/O)c1ccc2c(c1)C(=NO)c1cc(/C(C)=N/O)ccc1-2 | 93.5 |
| CC1=CC(c2c(O)cc(O)c(C(=O)CCc3ccccc3)c2O)C(C(C)C)CC1 (stereo not drawn) | 76 |

###

- experiment: NCI Yeast Anticancer Drug Screen. Data for the cln2 rad14 strain (AID 165);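 note: 0% = growth equal to vehicle treated cultures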
- conditionsUsed: S. cerevisiae cln2 rad14 strain, at 50.0 µM (retest, dose inferred, filed as 5.0), active compounds read high
This is part of a sample that, as a whole, favours compounds with a hit. Of some 79,000 tested, about 15% had one in any assay.
In this section we review reported growth inhibition values for a set of compounds.
readoutType: growth inhibition (%)

| compound | readoutType | numericValue |
| --- | --- | --- |
| CCCCC(CCCC)=NNC(=S)SC | growth inhibition | 17 |
| Cc1nc2ccc(NCCN(C)C)c3c(=O)c4cc(O)ccc4n1c23 | growth inhibition | 16 |
| O=C1c2ccccc2-c2ccc(N3C(=O)C4CCCCC4C3=O)cc21 (stereo unspecified) | growth inhibition | 95 |
| CS(=O)(=O)C(=Cc1ccccc1Cl)S(C)(=O)=O | growth inhibition | 13 |
| CC(C)Cn1cnc2c(SCc3cccc(F)c3)nc(N)nc21 | growth inhibition | 54 |
| CC1=C(C(=S)Nc2ccc(Cl)c(C(=O)OC(C)C)c2)SCCO1 | growth inhibition | 64 |
| O=[N+]([O-])/C=C/C=C/c1ccco1 | growth inhibition | 99 |
| Nc1ccc(C(=O)/C=C/c2ccccc2O)cc1 | growth inhibition | -14 |
| Cc1ccccc1NC(=O)C(=O)C(C#N)c1c(Cl)cccc1Cl (stereo unspecified) | growth inhibition | 10 |
| O=C1c2ccccc2SCC12OC2c1ccc(Cl)cc1 (stereo unspecified) | growth inhibition | 87 |
| CCCCCCc1c(Cl)nc(Cl)nc1Cl | growth inhibition | 15 |
| COC(=O)/C(=C/c1ccc(/C=C(/C(=O)O)c2ccc(OC)cc2)o1)c1ccccc1 | growth inhibition | 99 |
| OCC(O)Cc1c(Cl)c(Cl)c(Oc2c(Cl)c(Cl)c(CC(O)CO)c(Cl)c2Cl)c(Cl)c1Cl (stereo unspecified) | growth inhibition | -9 |
| CCCCCCCCCCN(CCCCCCCCCC)CC(O)c1cc(-c2ccccc2)nc2ccccc12 (stereo unspecified) | growth inhibition | 26 |
| Fc1ccc(NC(=S)SCc2ccccc2)cc1 | growth inhibition | 1 |
| O=C(Nc1cccnc1)c1ccc(CSc2ccc(Cl)cc2)o1 | growth inhibition | 94 |
| C=CCc1ccc(OC(=O)CCl)c(OC)c1 | growth inhibition | 8 |
| Nc1ccccc1SC(C[N+](=O)[O-])c1ccc2c(c1)OCO2 (stereo unspecified) | growth inhibition | 99 |
| COC(=O)c1ccc([N+](=O)[O-])o1 | growth inhibition | 5 |
| Cc1cc(C)n2nc(N)c(C#N)c2c1C#N | growth inhibition | 2 |
| CC(=O)NS(=O)(=O)c1ccc(N=Cc2cc(Cl)cc(Cl)c2O)cc1 | growth inhibition | 98 |
| COC1/C=C\OC2(C)Oc3c(C)c(O)c4c(c3C2=O)C(=O)C=C(NC(=O)C(C)=C/C=C\C(C)C(O)C(C)C2OC(C)(C)OC(C1C)C2C)C4=O (stereo unspecified) | growth inhibition | 74 |
| CC1=Cc2cc3[n-]c(cc4nc(cc5[n-]c(cc1n2)cc5C)C(C)=C4CCC(=O)O)c(CCC(=O)O)c3C.[Pd+2] | growth inhibition | 61 |
| Cc1ccc(C2(c3ccc(F)cc3)OC(=O)c3ccccc32)c(O)c1 (stereo unspecified) | growth inhibition | 99 |
| COC1OC2=CCC3C(=O)NC(=O)C3C2[C@H](OCc2ccccc2)C1OCc1ccccc1 (stereo partly specified) | growth inhibition | 99 |
| O=C(O)Cc1c[nH]c2ccccc12 | growth inhibition | -12 |
| COc1ccc2ccccc2c1/C=C/C(=O)c1ccccc1 | growth inhibition | 40 |
| CNC(=O)OCc1c(-c2ccccc2)c(-c2ccccc2)n(-c2ccc(OC)cc2)c1COC(=O)NC | growth inhibition | 98 |
| Clc1ccc2nc(Cl)c(Cl)nc2c1 | growth inhibition | 51 |
| O=C(Nc1ccccc1)O/N=C1/CCCC/C1=C\c1ccccc1 | growth inhibition | 85 |
| CN(c1ccc(C(N)=O)cc1)c1c(O)c2ccccc2[nH]c1=O | growth inhibition | 42 |
| Nc1ccc(N=Nc2ccccc2)c2ccccc12 | growth inhibition | 97 |
| CCCOC(=O)COc1ccccc1C(=O)OCCC | growth inhibition | 15 |
| CC1CCN(c2cc(-c3cc4ccccc4o3)oc(=O)c2C#N)CC1 | growth inhibition | -1 |
| CCOC(=O)/C(=C\n1c(=O)sc2ccccc21)C(=O)c1ccccc1 | growth inhibition | 26 |
| COc1ccc(C(=O)Nc2ccccc2OC)cc1 | growth inhibition | 17 |
